Test system: M14 melanoma
Protocol: NCI-60 one-dose screen, 48 h
Recorded Conditions: 10 µM unless noted
Compounds without any hit were thinned out: in the full panel of roughly 83,000, 20% have a hit. Active and inactive are the calls of the source. How the source made its calls: active means growth percent below 10; inactive means the rest.
Assign a class; possible classes are 1.0 (active), 0.0 (inactive)

Here are 5 molecules together with their reported answers.
Molecule	Study Target	Class
O=C(Cn1c2c(sc1=O)[C@H]1[C@@H](O)[C@@H](O)[C@H](O)[C@@H]1CS2)N1CCOCC1	M14 melanoma	0.0
COc1ccc(NC(=O)[C@H](CO)NC(=O)OC(C)(C)C)cc1C(=O)Nc1cccc(C2CC(=O)c3c(cc(OC)c(OC)c3OC)O2)c1 (stereo partly drawn)	M14 melanoma	0.0
COc1cc(CNC(=O)/C=C/c2ccc3c(c2)OCO3)ccc1OCc1cn(-c2cccc(C(F)(F)F)c2)nn1	M14 melanoma	1.0
CCOc1ccc(-c2c(C#N)c(-c3ccc(Cl)cc3)nc3n[nH]c(-c4ccc(Cl)cc4)c23)cc1OC	M14 melanoma	0.0
CN(C)c1ccnc(CNCCSC2(c3ccc(C(F)(F)F)cc3)c3ccccc3CCc3ccccc32)c1	M14 melanoma	1.0

Query string: Per the assay record, what outcome was assigned to CSc1ccccc1NC(=O)c1ccc2nnn(/C(C#N)=C/c3ccccn3)c2c1 ?
Result string: 1.0

Query string: Recorded call for O=C(O)Cn1c(O)c(/C=C2/C=c3cc4c(cc3=NC2=O)OCCO4)sc1=S ?
Result string: 0.0

Query string: Tell me the recorded outcome of this test for CC(=O)Nc1cccc(Nc2nccc(N[C@@H](C)c3ccccc3)n2)c1 .
Result string: 0.0
